# assayed.target: DGI-2 (Homo sapiens)
# Construct: encompassed the entire DGI-2 open reading frame (ORF); His-tag of vector pIVEX2.3-MCS (inferred from the vector and from the reverse primer lacking a stop codon); made in house; host or cells: cell-free in vitro translation (Rapid Translation System RTS, Roche; E. coli lysate)
# Sequence (Q15004 1-111): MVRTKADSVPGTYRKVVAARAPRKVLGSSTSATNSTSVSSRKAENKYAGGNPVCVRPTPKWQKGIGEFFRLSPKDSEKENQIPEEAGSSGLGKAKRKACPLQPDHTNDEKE
# procedure.text: ELISA analysis of phage on DGI-2 polypeptide (specific binding)
# condition.notes: ratio of specific binding to non-specific binding
readout: DGI-2/LDH (OD)

Recorded DGI-2/LDH (OD), per entry:
- substance: "RSIRLQLIDEACQFFDGLCT (DGI-2-20R-3-A8; listed as Escherichia coli)"
  DGI-2/LDH (OD): 6.4
- substance: "RVSYEMLGRRRRSMHGSSMR (DGI-2-20F-PP-A4; listed as Escherichia coli)"
  DGI-2/LDH (OD): 2.6
- substance: "KVWGCGARRGWERLGHLNQV (DGI-2-20F-PP-B10; listed as Escherichia coli)"
  DGI-2/LDH (OD): 2.4
- substance: "WWERFVWGRPVDDGVVVMAT (DGI-2-20R-3-B1; listed as Escherichia coli)"
  DGI-2/LDH (OD): 6.2
- substance: "RERWGTAWNLWTEGVVDVRP (DGI-2-20F-3-B5; listed as Escherichia coli)"
  DGI-2/LDH (OD): 6.6
- substance: "MQAASTLSTYMGAIRMGYPILHWDRGGVQRVDPGLYRGRV (DGI-2-40F-3-B10; listed as Escherichia coli)"
  DGI-2/LDH (OD): 1.4
- substance: "DGRGWGAMWMRWAEGLGADI (DGI-2-20R-4-G114; listed as Escherichia coli)"
  DGI-2/LDH (OD): 11.0
- substance: "RTLFINGGCCGKGSGGGRPL (DGI-2-20F-PP-G1; listed as Escherichia coli)"
  DGI-2/LDH (OD): 1.4
- substance: "SWRLWVSGELQGDRRKGLRG (DGI-2-20R-3-B7; listed as Escherichia coli)"
  DGI-2/LDH (OD): 3.0
- substance: "GLRACDTYLGFCVGARRIDD (DGI-2-20F-3-B102; listed as Escherichia coli)"
  DGI-2/LDH (OD): 2.5

a: GRWDGWEVCGIWGADDCASG (DGI-2-20R-4-H1; listed as Escherichia coli)
b: LSVFRPGQFPHVGARGVSRT (DGI-2-20R-4-G32; listed as Escherichia coli)
c: MSTLQGPGHLFQMLRRASLG (DGI-2-20R-4-H12; listed as Escherichia coli)
d: SRPGWCSRGTAWGFPGCSSS (DGI-2-20R-3-C4; listed as Escherichia coli)
e: RGVNSDMPRLYICRADGQGQ (DGI-2-20F-PP-H6; listed as Escherichia coli)
// ranking: key=DGI-2/LDH (OD), reverse=True Please list the labels in the order you were asked to rank them.
a, d, c, e, b
(a: 7.8, d: 4.2, c: 2.8, e: 1.9, b: 1.2)

----------
# assayed.target: DGI-2 (Homo sapiens, UniProt Q15004)
# Construct: encompassed the entire DGI-2 open reading frame (ORF); His-tag of vector pIVEX2.3-MCS (inferred from the vector and from the reverse primer lacking a stop codon); made in house; host or cells: cell-free in vitro translation (Rapid Translation System RTS, Roche; E. coli lysate)
# Sequence (Q15004 1-111): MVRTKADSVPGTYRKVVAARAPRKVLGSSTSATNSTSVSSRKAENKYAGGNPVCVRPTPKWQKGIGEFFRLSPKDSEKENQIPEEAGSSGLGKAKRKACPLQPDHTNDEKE
# procedure.text: ELISA analysis of phage on DGI-2 polypeptide (specific binding)
# condition.notes: binding to DGI-2 polypeptide (specific binding); phage ELISA units read at 405 nm
No end group written: not given here.
readout: DGI-2 (OD)

Recorded DGI-2 (OD), per entry:
- substance: "DYKGRTMTSPIMSALPVYDRLHGIGSRGQNMD (DYKGRTMTSPIMSALPVYDRLHGAIGSRGQNMD; DGI-2-20C-3-B3; listed as Escherichia coli)"
  assayed.target: "DGI-2 (Homo sapiens, UniProt Q15004)"
  DGI-2 (OD): 0.8
- substance: "VAFGEQJRVAMAGTLWQRWR (VAFGEQIRVAMAGTLWQRWR; not fully specified; non-natural residue J; DGI-2-20R-3-D5; listed as Escherichia coli)"
  assayed.target: "DGI-2 (Homo sapiens, UniProt Q15004)"
  DGI-2 (OD): 1.5
- substance: "V#CR#LCRLCRFSMRCGGLSLVLGSAAAFFCEVFVGFCV (VCRLCRLCRFSMRCGGLSLVLGSAAAFFCEVFVGFCV; not fully specified (residues 1, 3); cysteine pairing not given here; also: TAA stop codons (#) after V1 and after R3; listed as Escherichia coli) [DGI-2-40F-4-E1130]"
  assayed.target: "DGI-2 (Homo sapiens, UniProt Q15004)"
  DGI-2 (OD): 2.9

a: GASRVVDVGWRFWGKLWQRS (DGI-2-20F-PP-G5; listed as Escherichia coli)
b: GEVDCVYALTHRFLSPQVQYHIHRPV (GEVDCVYALTHRFLSPQVQYHHRPV; DGI-2-20C-3-A12; listed as Escherichia coli)
Determine, for a and b , which has the greater value of DGI-2 (OD). // caller expects the label of the chosen entry
a
(a: 2.4 OD, b: 0.9 OD)
